biological target: T1, human MSLN-FL-his protein (human, UniProt Q13421 296-580); test: ELISA on coated antigen, antibody 0.0001 nM
T1 construct: Self-made in HEK293E cells; also called human MSLN full-length protein; hMSLN-FL-his; not shown: His tag
T1 sequence (Q13421 other isoform, or with tags, fused parts or gaps): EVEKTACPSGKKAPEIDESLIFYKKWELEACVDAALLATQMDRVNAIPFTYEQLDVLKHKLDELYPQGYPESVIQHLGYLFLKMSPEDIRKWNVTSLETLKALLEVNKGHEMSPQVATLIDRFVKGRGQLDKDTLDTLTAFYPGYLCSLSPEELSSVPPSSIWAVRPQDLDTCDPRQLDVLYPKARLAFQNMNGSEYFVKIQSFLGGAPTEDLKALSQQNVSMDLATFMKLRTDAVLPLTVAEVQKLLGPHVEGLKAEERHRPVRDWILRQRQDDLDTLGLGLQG
testReadout: OD450
Phrase the answer as number then unit, nothing more needed.

Please look at the items below and tell me OD450 for each one, in order.
1. S009-F3.7.3 (antibody, human IgG1, kappa, V domains shown, Human-murine chimeric antibody: murine VH/VL on human IgG1 heavy and kappa light constant regions) VH: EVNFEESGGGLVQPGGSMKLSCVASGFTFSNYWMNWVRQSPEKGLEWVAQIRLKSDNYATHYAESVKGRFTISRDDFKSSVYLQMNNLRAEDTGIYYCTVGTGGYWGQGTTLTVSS VL: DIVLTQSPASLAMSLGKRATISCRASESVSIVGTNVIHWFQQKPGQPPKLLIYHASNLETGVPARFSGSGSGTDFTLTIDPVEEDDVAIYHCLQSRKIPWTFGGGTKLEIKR
2. S009-F3.38.10 (antibody, human IgG1, kappa, V domains shown, Human-murine chimeric antibody: murine VH/VL on human IgG1 heavy and kappa light constant regions) VH: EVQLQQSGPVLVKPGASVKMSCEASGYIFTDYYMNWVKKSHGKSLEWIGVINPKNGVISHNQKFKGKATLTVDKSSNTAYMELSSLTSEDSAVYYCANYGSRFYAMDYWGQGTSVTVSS VL: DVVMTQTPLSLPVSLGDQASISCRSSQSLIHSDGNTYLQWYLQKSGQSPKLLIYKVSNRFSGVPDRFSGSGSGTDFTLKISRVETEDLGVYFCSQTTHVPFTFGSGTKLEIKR
3. S009-F3.74.20 (antibody, human IgG1, kappa, V domains shown, Human-murine chimeric antibody: murine VH/VL on human IgG1 heavy and kappa light constant regions) VH: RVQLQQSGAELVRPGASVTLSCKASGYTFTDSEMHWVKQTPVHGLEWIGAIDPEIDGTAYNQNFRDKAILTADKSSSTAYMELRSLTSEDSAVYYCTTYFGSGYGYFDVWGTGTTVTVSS VL: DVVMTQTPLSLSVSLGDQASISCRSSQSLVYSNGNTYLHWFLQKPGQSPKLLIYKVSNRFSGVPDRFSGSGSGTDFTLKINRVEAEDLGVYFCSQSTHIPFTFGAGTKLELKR

Completion:
0.06 OD450
0.06 OD450
0.07 OD450

Data provenance: patent US20250250357A1
